systemName: Hepatocyte growth factor receptor (Homo sapiens)
Sequence (P08581 whole entry): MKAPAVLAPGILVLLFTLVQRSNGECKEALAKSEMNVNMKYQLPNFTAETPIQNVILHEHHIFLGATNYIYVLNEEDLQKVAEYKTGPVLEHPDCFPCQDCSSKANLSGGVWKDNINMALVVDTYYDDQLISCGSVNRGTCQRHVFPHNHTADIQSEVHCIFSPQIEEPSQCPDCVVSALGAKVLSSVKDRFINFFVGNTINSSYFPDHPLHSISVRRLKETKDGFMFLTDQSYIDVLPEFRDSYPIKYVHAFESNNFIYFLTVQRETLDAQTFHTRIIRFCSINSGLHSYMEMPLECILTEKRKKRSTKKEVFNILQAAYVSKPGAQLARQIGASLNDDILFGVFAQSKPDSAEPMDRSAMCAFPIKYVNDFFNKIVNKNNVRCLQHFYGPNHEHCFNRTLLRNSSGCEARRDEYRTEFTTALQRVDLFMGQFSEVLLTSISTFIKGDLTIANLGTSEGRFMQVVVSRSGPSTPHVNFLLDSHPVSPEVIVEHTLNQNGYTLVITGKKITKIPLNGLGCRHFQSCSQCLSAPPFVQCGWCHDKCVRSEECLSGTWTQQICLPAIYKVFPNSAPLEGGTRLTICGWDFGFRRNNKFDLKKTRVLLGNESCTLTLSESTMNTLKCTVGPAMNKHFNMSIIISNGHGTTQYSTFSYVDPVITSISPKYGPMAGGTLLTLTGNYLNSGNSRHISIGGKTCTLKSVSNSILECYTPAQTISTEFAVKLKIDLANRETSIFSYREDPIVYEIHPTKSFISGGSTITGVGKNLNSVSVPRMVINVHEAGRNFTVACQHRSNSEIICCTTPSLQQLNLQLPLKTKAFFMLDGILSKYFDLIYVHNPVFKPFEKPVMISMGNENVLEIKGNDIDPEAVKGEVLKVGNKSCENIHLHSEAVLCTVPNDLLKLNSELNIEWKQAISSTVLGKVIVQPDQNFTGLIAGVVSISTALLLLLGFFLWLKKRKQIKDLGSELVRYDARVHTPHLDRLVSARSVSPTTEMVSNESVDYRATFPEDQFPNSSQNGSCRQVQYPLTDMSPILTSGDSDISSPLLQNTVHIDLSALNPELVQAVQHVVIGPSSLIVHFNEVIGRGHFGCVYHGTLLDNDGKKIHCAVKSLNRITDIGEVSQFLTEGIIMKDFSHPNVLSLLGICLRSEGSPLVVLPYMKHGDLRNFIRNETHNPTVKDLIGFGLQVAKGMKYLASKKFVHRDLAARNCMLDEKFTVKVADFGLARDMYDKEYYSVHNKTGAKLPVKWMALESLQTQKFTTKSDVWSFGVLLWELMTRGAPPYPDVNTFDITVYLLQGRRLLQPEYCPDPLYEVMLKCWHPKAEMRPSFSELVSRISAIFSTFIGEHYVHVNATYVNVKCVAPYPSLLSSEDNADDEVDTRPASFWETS
testReadout: pIC50
In simple prose, pIC50 is minus the logarithm base ten of a concentration in moles per litre.

Inquiry: Given the entry CNC(=O)c1ccc(-c2ccc3nnc(C(F)(F)c4ccc5nn(C)cc5c4F)n3n2)cn1 , report its measured pIC50.
Reply text: 6.83
